# Test system: CCRIS mutagenicity, Ames/micronucleus/aberration tests
# TEST DETAILS: CCRIS mutagenicity studies
# CONDITION SUMMARY: Test System: Ames Salmonella typhimurium; Strain/Indicator: TA100; Metabolic Activation: None; Method: Preincubation
Calls of active or inactive are those of the source. No rule for the calls is given here.
Valid outcomes are listed here; reply with one: YES = active, NO = inactive

// known answers, use as guide
{"columns": ["COMPOUND", "ASSIGNED CATEGORY"],
 "data": [
  ["C=Cc1ccc(S(=O)(=O)O)cc1", "NO"],
  ["Nc1ccc(N)cc1", "NO"],
  ["CC(C)CCCC(C)CCCC(C)CCCCC(C)CCCC(C)CCCC(C)C (configuration not stated)", "NO"],
  ["Nc1ccc(I)cc1Cl", "NO"],
  ["CC(O)CC(C)(C)O (configuration not stated)", "NO"],
  ["CC(C)(C)C(=O)C(Oc1ccc(Cl)cc1)n1ccnc1 (configuration not stated)", "NO"]
]}

What outcome does the record of this test show for O=c1c2ccccc2c(=O)c2c1ccc1c3ccc4c(=O)c5c(ccc6c7ccc8c(=O)c9ccccc9c(=O)c8c7[nH]c65)c(=O)c4c3[nH]c12 ?
NO

Write down the call the test reported for this compound. Item: CC(C)C#N
YES

Outcome logged for CC(C)c1ccccc1 in this assay:
NO

Would you mind telling me which call this test gave O=[N+]([O-])c1ccc(Cl)cc1 ?
NO

Please state the recorded outcome for this compound: CN(C)c1ccc2nc3ccc(=[N+](C)C)cc-3sc2c1
YES

Can you look up the reported call for O=C(Nc1cccc2c(=O)c3c(ccc4c5cc(NC(=O)c6ccccc6)c6c(=O)c7ccccc7c(=O)c6c5[nH]c43)c(=O)c12)c1ccccc1 for me?
NO
